- target_desc: MLKL (Homo sapiens)
- Sequence (Q8NB16 whole entry): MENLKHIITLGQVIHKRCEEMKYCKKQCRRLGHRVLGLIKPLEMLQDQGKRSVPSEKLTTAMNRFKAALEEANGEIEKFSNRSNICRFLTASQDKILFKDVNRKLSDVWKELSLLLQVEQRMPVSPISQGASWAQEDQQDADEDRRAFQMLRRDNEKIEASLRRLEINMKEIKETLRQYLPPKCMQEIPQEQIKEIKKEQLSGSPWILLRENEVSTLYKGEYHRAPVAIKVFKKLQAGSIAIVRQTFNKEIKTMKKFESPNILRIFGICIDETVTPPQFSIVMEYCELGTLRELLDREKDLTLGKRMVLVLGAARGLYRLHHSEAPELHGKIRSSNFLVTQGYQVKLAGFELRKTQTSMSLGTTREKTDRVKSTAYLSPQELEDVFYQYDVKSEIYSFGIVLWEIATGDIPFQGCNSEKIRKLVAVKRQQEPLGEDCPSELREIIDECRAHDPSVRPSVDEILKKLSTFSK
- assay_name: MLKL degradation assay in HepG2 cell line (western blot)
- Type: cell-based
- Design: endogenous in cells; host or cells: HepG2 or HaCaT
- assay_setup: compound 1 μM; cell line not given
measure_name: Degradation assay (Degradation %) 1 μM
Quick reminder: number only, in %, skip the unit.

Examples with answers:
molecule	measure_name	unit_of_measurement	numeric_result
Nc1ncc(-c2cnn(C3CCN(CCC4CCN(C(=O)CNc5cccc6c5C(=O)N(C5CCC(=O)NC5=O)C6=O)CC4)CC3)c2)cc1C(=O)OC(C(=O)Nc1ccc(F)cc1)c1ccccc1 (centres unmarked)	Degradation assay (Degradation %) 1 μM	%	82.82
Nc1ncc(-c2cnn(C3CCN(C[C@H]4CC[C@H](CNc5cccc6c5C(=O)N(C5CCC(=O)NC5=O)C6=O)CC4)CC3)c2)nc1C(=O)O[C@@H](C(=O)Nc1ccc(F)cc1)c1ccccc1 (some centres unmarked)	Degradation assay (Degradation %) 1 μM	%	62.4
Nc1ncc(-c2cnn(C3CCN(CCOC4CCN(c5ccc6c(c5)C(=O)N(C5CCC(=O)NC5=O)C6=O)CC4)CC3)c2)nc1C(=O)OC(C(=O)Nc1ccc(F)cc1)c1ccccc1 (centres unmarked)	Degradation assay (Degradation %) 1 μM	%	19.16
Nc1ncc(-c2cnn(C3CCN(C(=O)CC4CCN(C(=O)C5CN(c6ccc7nnn(C8CCC(=O)NC8=O)c(=O)c7c6)C5)CC4)CC3)c2)nc1C(=O)O[C@@H](C(=O)Nc1ccc(F)cc1)c1ccccc1 (some centres unmarked)	Degradation assay (Degradation %) 1 μM	%	77.69
Nc1ncc(-c2cnn(C3CCN(CC4CCN(C(=O)CNc5cccc6c5C(=O)N(C5CCC(=O)NC5=O)C6=O)CC4)CC3)c2)nc1C(=O)O[C@@H](C(=O)Nc1ccc(F)cc1)c1ccccc1 (some centres unmarked)	Degradation assay (Degradation %) 1 μM	%	50.37
Nc1ncc(-c2cnn(C3CCN(CCOCCOCCNC(=O)C4CN(c5cccc6c5C(=O)N(C5CCC(=O)NC5=O)C6=O)C4)CC3)c2)nc1C(=O)O[C@@H](C(=O)Nc1ccc(F)cc1)c1ccccc1 (some centres unmarked)	Degradation assay (Degradation %) 1 μM	%	10.31

// query Degradation assay (Degradation %) 1 μM value for entry Nc1ncc(-c2cnn(C3CCN(CCOC4CCN(C(=O)CNc5ccc6c(c5)C(=O)N(C5CCC(=O)NC5=O)C6=O)CC4)CC3)c2)nc1C(=O)OC(C(=O)Nc1ccc(F)cc1)c1ccccc1 (centres unmarked) 78.33

Would you mind telling me what Degradation assay (Degradation %) 1 μM value was observed for Nc1ncc(-c2cnn([C@@H]3CCN(CC4CCN(C(=O)COc5ccc6c(c5)C(=O)N(C5CCC(=O)NC5=O)C6=O)CC4)C3)c2)nc1C(=O)O[C@@H](C(=O)Nc1ccc(F)cc1)c1ccccc1 (some centres unmarked) ? 92.98
